Cited source for all entries: ChEMBL document CHEMBL3994637

Each item that follows carries a reported log10(MIC).
- System: Staphylococcus aureus
- experimental-details: Antibacterial activity against Staphylococcus aureus ATCC 25923 by broth microdilution method
- Assay type: functional
In plain terms, each number is the log10 of measured MIC in µg/mL.

compound	target-of-assay	measure-name	assay-value
CCn1cc(C(=O)O)c(=O)c2cc(F)c(N3CCNCC3)cc21 [NORFLOXACIN]	Staphylococcus aureus	log10(MIC)	-0.41
O=c1c2ccccc2sn1-c1cccc(Cl)c1	Staphylococcus aureus	log10(MIC)	0.80
COC(=O)[C@H](C)n1sc2ccccc2c1=O	Staphylococcus aureus	log10(MIC)	0.48
COC(=O)[C@H](C(C)C)n1sc2ccccc2c1=O	Staphylococcus aureus	log10(MIC)	0.46

Please supply the value of reported log10(MIC) for the item CC[C@H](C)[C@@H](C(=O)OC)n1sc2ccccc2c1=O
0.62

Please supply the value of reported log10(MIC) for the item C[C@@H](c1ccccc1)n1sc2ccccc2c1=O
1.01

Please supply the value of reported log10(MIC) for the item O=c1c2ccccc2sn1-c1ccccc1Cl
1.40

###

- System: Staphylococcus aureus
- experimental-details: Antibacterial activity against methicillin-resistant Staphylococcus aureus ATCC 700699 by broth microdilution method
- Assay type: functional
- measurement-conditions: Mu50
Each item that follows carries a reported MIC.
Just the number in µg/mL, nothing appended.

compound	target-of-assay	unit-abbreviation	MIC
CC(C)Cn1sc2ccccc2c1=O	Staphylococcus aureus	µg/mL	5.2
CC(Cn1sc2ccccc2c1=O)n1sc2ccccc2c1=O (configuration not stated)	Staphylococcus aureus	µg/mL	2.6
C[C@@H](c1ccccc1)n1sc2ccccc2c1=O	Staphylococcus aureus	µg/mL	1.9

State recorded MIC with Staphylococcus aureus, entry O=c1c2ccccc2sn1-c1ccccc1-n1sc2ccccc2c1=O , no comment.
10.2

State recorded MIC with Staphylococcus aureus, entry CC[C@H](C)[C@@H](C(=O)OC)n1sc2ccccc2c1=O , no comment.
0.89

State recorded MIC with Staphylococcus aureus, entry O=c1c2ccccc2sn1-c1ccc(F)cc1 , no comment.
3.12

###

- Test system: Candida albicans
- experimental-details: Anti-fungal activity against Candida albicans after 48 hrs by broth microdilution method
- Format: functional
Each item that follows carries a reported MIC.
Just the number in µg/mL, nothing appended.

In the examples that follow, each entry is paired with its recorded MIC.
smiles-record	MIC, µg/mL
COC(=O)[C@H](CC(C)C)n1sc2ccccc2c1=O	1.9
COC(=O)[C@H](C(C)C)n1sc2ccccc2c1=O	2.3
O=c1c2ccccc2sn1-c1cccc(Cl)c1	25
Nc1ccccc1-n1sc2ccccc2c1=O	4.3
O=c1c2ccccc2sn1-c1cccc2ccccc12	25
C[C@@H]1[C@H](O)[C@@H](C)/C=C/C=C/C=C/C=C/C=C/C=C/C=C/[C@H](O[C@@H]2O[C@H](C)[C@@H](O)[C@H](N)[C@@H]2O)C[C@@H]2O[C@](O)(C[C@@H](O)C[C@@H](O)[C@H](O)CC[C@@H](O)C[C@@H](O)CC(=O)O[C@H]1C)C[C@H](O)[C@H]2C(=O)O	0.016

Please supply the value of reported MIC for the item O=c1c2ccccc2sn1-c1cccc(F)c1
12.5

Please supply the value of reported MIC for the item Cc1ccc(-n2sc3ccccc3c2=O)cc1
2.4

Please supply the value of reported MIC for the item CC[C@H](C)[C@@H](C(=O)OC)n1sc2ccccc2c1=O
2.5

###

Each item that follows carries a reported MIC.
- Test system: Staphylococcus aureus
- experimental-details: Antibacterial activity against Staphylococcus aureus ATCC 25923 by broth microdilution method
- Format: functional
Just the number in µg/mL, nothing appended.

In the examples that follow, each entry is paired with its recorded MIC.
smiles-record	assay-value
COC(=O)[C@H](C)NC(=O)[C@H](C)n1sc2ccccc2c1=O	7.5
O=c1c2ccccc2sn1-c1ccccc1I	12.5
O=c1c2ccccc2sn1-c1cccc(F)c1	6.25

Now look at this one.
Please supply the value of reported MIC for the item O=c1c2ccccc2sn1-c1ccc(F)cc1
6.25

###

- Tested on: Staphylococcus aureus
- experimental-details: Antibacterial activity against Staphylococcus aureus ATCC 29213 by broth microdilution method
- Assay type: functional
Each item that follows carries a reported log10(IC50).
In plain terms, each number is the log10 of measured IC50 in µg/mL.

compound	target-of-assay	log10(IC50)
Cc1ccc(-n2sc3ccccc3c2=O)cc1	Staphylococcus aureus	-0.22
CC(Cn1sc2ccccc2c1=O)n1sc2ccccc2c1=O (stereo not given)	Staphylococcus aureus	0.30
CC[C@H](C)[C@@H](C(=O)OC)n1sc2ccccc2c1=O	Staphylococcus aureus	0.32

Please supply the value of reported log10(IC50) for the item O=c1c2ccccc2sn1C1CCCCC1n1sc2ccccc2c1=O (stereo not given)
0.40

Please supply the value of reported log10(IC50) for the item O=c1c2ccccc2sn1-c1ccccc1
0.20

###

- Tested on: Aspergillus fumigatus
- experimental-details: Anti-fungal activity against Aspergillus fumigatus after 48 hrs by broth microdilution method
- Type: functional
Each item that follows carries a reported MIC.

In the examples that follow, each entry is paired with its recorded MIC.
molecule	assay-value
COc1ccccc1-n1sc2ccccc2c1=O	> 50 µg/mL
O=c1c2ccccc2sn1C1CCCCC1n1sc2ccccc2c1=O (stereo not given)	> 50 µg/mL
COC(=O)[C@H](C)NC(=O)[C@H](C)n1sc2ccccc2c1=O	> 50 µg/mL
COC(=O)[C@H](CC(C)C)n1sc2ccccc2c1=O	> 50 µg/mL

Now look at this one.
Please supply the value of reported MIC for the item OC(Cn1cncn1)(Cn1cncn1)c1ccc(F)cc1F
> 32 µg/mL

###

- Test system: Staphylococcus aureus
- experimental-details: Antibacterial activity against methicillin-resistant Staphylococcus aureus ATCC 700699 by broth microdilution method
- Type: functional
- measurement-conditions: Mu50
Bucketed by reported MIC, buckets being low range: < 0.9 µg/mL; mid range: ≥ 0.9 µg/mL and < 2 µg/mL; high range: ≥ 2 µg/mL

Please review the following examples before continuing.
compound	target-of-assay	class-assignment
COC(=O)[C@@H](NC(=O)[C@H](C(C)C)n1sc2ccccc2c1=O)C(C)C	Staphylococcus aureus	high range
COC(=O)[C@H](C)n1sc2ccccc2c1=O	Staphylococcus aureus	low range
Cc1ccc(-n2sc3ccccc3c2=O)cc1	Staphylococcus aureus	low range
O=c1c2ccccc2sn1-c1cccc(C(F)(F)F)c1	Staphylococcus aureus	high range
COC(=O)[C@H](C(C)C)n1sc2ccccc2c1=O	Staphylococcus aureus	mid range

Which band does COc1ccccc1-n1sc2ccccc2c1=O fall in?
mid range

Which band does O=c1c2ccccc2sn1-c1ccccc1 fall in?
low range

Which band does O=c1c2ccccc2sn1Cc1ccc2c(c1)OCO2 fall in?
mid range

Which band does COC(=O)[C@H](c1ccccc1)n1sc2ccccc2c1=O fall in?
high range

Which band does COc1ccc(-n2sc3ccccc3c2=O)cc1 fall in?
low range

Which band does O=c1c2ccccc2sn1-c1ccc(Cl)cc1 fall in?
high range

Which band does CCn1cc(C(=O)O)c(=O)c2cc(F)c(N3CCNCC3)cc21 fall in?
high range

Which band does Nc1ccccc1-n1sc2ccccc2c1=O fall in?
high range

Which band does O=c1c2ccccc2sn1-c1ccccc1I fall in?
high range

Which band does O=c1c2ccccc2sn1C1CCCCC1n1sc2ccccc2c1=O (stereo unspecified) fall in?
high range

###

- System: Staphylococcus aureus
- experimental-details: Antibacterial activity against Staphylococcus aureus ATCC 29213 by broth microdilution method
- Type: functional
measure-name: IC50 (µg/mL)
Just the number in µg/mL, nothing appended.

In the examples that follow, each entry is paired with its recorded IC50.
smiles-record	measure-name	unit-abbreviation	assay-value
O=c1c2ccccc2sn1C1CCCCC1	IC50	µg/mL	4.6
O=c1c2ccccc2sn1-c1ccccc1-n1sc2ccccc2c1=O	IC50	µg/mL	6.3
COC(=O)[C@H](C)n1sc2ccccc2c1=O	IC50	µg/mL	6.4
COC(=O)[C@H](C(C)C)n1sc2ccccc2c1=O	IC50	µg/mL	2.6
COc1ccccc1-n1sc2ccccc2c1=O	IC50	µg/mL	1.6

State recorded IC50 with Staphylococcus aureus, entry COC(=O)[C@H](C)NC(=O)[C@H](C)n1sc2ccccc2c1=O , no comment.
3.5

State recorded IC50 with Staphylococcus aureus, entry O=c1c2ccccc2sn1Cc1ccc2c(c1)OCO2 , no comment.
1.9

State recorded IC50 with Staphylococcus aureus, entry COC(=O)[C@H](c1ccccc1)n1sc2ccccc2c1=O , no comment.
13.5

State recorded IC50 with Staphylococcus aureus, entry C[C@@H](c1ccccc1)n1sc2ccccc2c1=O , no comment.
4.6
